Form: system (Full-length USP19 (Homo sapiens, UniProt O94966)), quantity (pIC50), values below.
pIC50: −log10 of the molar value.

Guide cases for pIC50, answers given:
- compound: "C[C@H]1CN(C(=O)N2CC[C@@H](Cn3cnc4ccc(F)cc4c3=O)C3(CCCC3)C2)[C@H](c2cc(F)ccc2F)CO1"
  assaySystem: "Full-length USP19 (Homo sapiens, UniProt O94966)"
  observedMeasurement: "7.00 to 8.00"
- compound: "COc1ccccc1-c1cc(=O)n(C[C@@H]2CCN(C(=O)N3CC[C@@H](N)C[C@H]3c3ccccc3)CC23CCCC3)cn1"
  assaySystem: "Full-length USP19 (Homo sapiens, UniProt O94966)"
  observedMeasurement: "> 8.00"
- compound: "CC1(N[C@@H]2CCN(C(=O)N3CC[C@@H](Cn4cnc(-c5ccccc5)cc4=O)C4(CCCC4)C3)[C@H](c3ccccc3)C2)CC1"
  assaySystem: "Full-length USP19 (Homo sapiens, UniProt O94966)"
  observedMeasurement: "> 8.00"
- compound: "O=C(N1CC[C@@H](Cn2ccc(Cl)cc2=O)C2(CCCC2)C1)N1CC[C@@H](NCC(F)F)C[C@H]1c1cc(F)ccc1F"
  assaySystem: "Full-length USP19 (Homo sapiens, UniProt O94966)"
  observedMeasurement: "7.00 to 8.00"
- compound: "CN[C@@H]1CCN(C(=O)N2CC[C@@H](Cn3cnc(-c4ccccc4OC)cc3=O)C3(CCCC3)C2)[C@H](c2cc(F)ccc2F)C1"
  assaySystem: "Full-length USP19 (Homo sapiens, UniProt O94966)"
  observedMeasurement: "> 8.00"

// compound CN[C@@H]1CCN(C(=O)N2CC[C@@H](Cn3cnc(-c4ccccc4)cc3=O)C3(CCCC3)C2)[C@H](c2ccc(F)cc2F)C1 , assay Full-length USP19 (Homo sapiens, UniProt O94966), pIC50 value: > 8.00

Full-length USP19 (Homo sapiens, UniProt O94966) data for CN[C@@H]1CCN(C(=O)N2CC[C@@H](CN3CCC(c4ccccc4OC)=CC3=O)C3(CCCC3)C2)[C@H](c2ccc(F)cc2F)C1 (racemic) ; its pIC50: > 8.00

GET /values?item= CN[C@@H]1CCN(C(=O)N2CC[C@@H](Cn3cnc(C(F)F)cc3=O)C3(CCCC3)C2)[C@H](c2ccc(F)cc2F)C1 &system= Full-length USP19 (Homo sapiens, UniProt O94966) returns pIC50: > 8.00

###

# testSummary: In vivo mouse PK
# condition: C57BL/6N mice, IV 1 mg/kg, read-out: IV t1/2 (converted)
endpointName: half-life (h)
# number only, unit h dropped from output

# half-life of N[C@@H]1CCN(C(=O)N2CC[C@@](O)(Cn3cnc(-c4ccccc4)cc3=O)C3(CCCC3)C2)[C@H](c2ccccc2)C1 [F 11 9 N W032, reference compound] = 2

###

Property: pIC50; scope: individual compounds
# assaySystem: Full-length USP19 (Homo sapiens, UniProt O94966)
# Sequence (O94966 1-1318): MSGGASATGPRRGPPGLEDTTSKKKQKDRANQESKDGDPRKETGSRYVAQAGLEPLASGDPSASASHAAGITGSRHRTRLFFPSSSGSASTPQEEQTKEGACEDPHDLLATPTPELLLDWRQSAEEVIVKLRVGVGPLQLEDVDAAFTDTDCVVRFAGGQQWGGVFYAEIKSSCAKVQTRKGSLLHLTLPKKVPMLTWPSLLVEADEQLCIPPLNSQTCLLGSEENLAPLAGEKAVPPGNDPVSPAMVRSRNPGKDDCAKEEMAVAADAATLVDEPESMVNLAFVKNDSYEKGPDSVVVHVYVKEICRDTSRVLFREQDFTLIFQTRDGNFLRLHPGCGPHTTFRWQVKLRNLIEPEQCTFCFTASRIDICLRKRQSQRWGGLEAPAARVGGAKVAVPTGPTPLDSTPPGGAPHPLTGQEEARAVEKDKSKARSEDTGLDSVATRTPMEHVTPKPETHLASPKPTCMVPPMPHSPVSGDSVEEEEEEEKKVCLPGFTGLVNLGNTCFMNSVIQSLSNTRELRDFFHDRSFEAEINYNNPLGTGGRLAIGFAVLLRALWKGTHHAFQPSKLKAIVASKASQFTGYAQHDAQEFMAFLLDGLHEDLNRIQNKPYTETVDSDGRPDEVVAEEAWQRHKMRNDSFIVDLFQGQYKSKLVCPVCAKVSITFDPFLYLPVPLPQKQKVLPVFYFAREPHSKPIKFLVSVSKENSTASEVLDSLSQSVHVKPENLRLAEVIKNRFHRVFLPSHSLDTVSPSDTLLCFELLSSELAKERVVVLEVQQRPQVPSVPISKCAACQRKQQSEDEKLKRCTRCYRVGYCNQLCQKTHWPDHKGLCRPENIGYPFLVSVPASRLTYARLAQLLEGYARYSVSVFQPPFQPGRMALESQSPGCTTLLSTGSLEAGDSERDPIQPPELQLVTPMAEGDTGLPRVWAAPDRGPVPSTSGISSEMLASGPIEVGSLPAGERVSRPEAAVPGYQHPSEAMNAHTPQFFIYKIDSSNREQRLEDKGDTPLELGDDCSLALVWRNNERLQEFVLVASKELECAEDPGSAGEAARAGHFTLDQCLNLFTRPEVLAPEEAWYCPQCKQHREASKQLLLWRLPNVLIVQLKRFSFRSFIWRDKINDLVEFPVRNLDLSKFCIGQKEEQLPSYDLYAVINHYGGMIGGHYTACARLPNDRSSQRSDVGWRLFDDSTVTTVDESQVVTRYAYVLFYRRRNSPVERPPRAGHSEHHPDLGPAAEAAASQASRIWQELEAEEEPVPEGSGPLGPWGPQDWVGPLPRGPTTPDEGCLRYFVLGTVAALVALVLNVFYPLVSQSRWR
pIC50: −log10 of the molar value.

- compound: "Cc1ccccc1-c1ccn(C[C@@H]2CCN(C(=O)N3CC[C@@H](N)C[C@H]3c3ccccc3)CC23CCCC3)c(=O)c1"
  pIC50: "> 8.00"
- compound: "O=C(N1CC[C@H](Cn2cnc(-c3ccccc3)cc2=O)C2(CCCC2)C1)N1CCNC[C@H]1c1ccccc1 (single isomer, unassigned)"
  pIC50: "6.00 to 7.00"
- compound: "COc1ccccc1-c1ccn(C[C@@H]2CCN(C(=O)N3CC[C@@H](N)C[C@H]3c3ccccc3)CC23CCCC3)c(=O)c1"
  pIC50: "> 8.00"
- compound: "N[C@@H]1CCN(C(=O)N2CC[C@@H](Cn3cnc(-c4ccccc4)cc3=O)C3(CCCC3)C2)[C@H](c2ccc(F)cc2F)C1"
  pIC50: "> 8.00"
- compound: "CN[C@@H]1CCN(C(=O)N2CC[C@@H](Cn3cnc4ccc(F)cc4c3=O)C3(CCCC3)C2)[C@H](c2ccc(F)cc2F)C1"
  pIC50: "> 8.00"

Short answer on Full-length USP19 (Homo sapiens, UniProt O94966) for N[C@H]1C[C@@H](c2ccccc2)N(C(=O)N2CC[C@@H](Cn3ccc(-c4ccccc4)cc3=O)C3(CCCC3)C2)C[C@H]1F (racemic) , pIC50: > 8.00

###

These records show pIC50 for Full-length USP19 (Homo sapiens).
pIC50: −log10 of the molar value. Counter-ions that a name gives are not always drawn.

Some molecules with recorded pIC50:
- molecule: "CO[C@@]1(Cn2ccc(-c3ccccc3)cc2=O)CCN(C(=O)N2CC[C@@H](N)C[C@H]2c2ccccc2)CC12CCCC2 [Example 73]"
  pIC50: "> 8.00"
- molecule: "N[C@@H]1CCN(C(=O)N2CCC(Cn3ccc(C(F)F)cc3=O)C3(CCCC3)C2)[C@H](c2ccccc2)C1 (some centres unmarked) [Example 38]"
  pIC50: "> 8.00"
- molecule: "CC(C)(C)OC(=O)CN[C@@H]1CCN(C(=O)N2CC[C@@H](Cn3cnc(-c4ccccc4)cc3=O)C3(CCCC3)C2)[C@H](c2cc(F)ccc2F)C1 [Example 154]"
  pIC50: "> 8.00"
- molecule: "CC(=O)N[C@@H]1CCN(C(=O)N2CC[C@@H](Cn3ccc(-c4ccccc4)cc3=O)C3(CCCC3)C2)[C@H](c2ccccc2)C1 [Example 93]"
  pIC50: "7.00 to 8.00"
- molecule: "CCN[C@@H]1CCN(C(=O)N2CC[C@@H](Cn3ccc(-c4ccccc4)cc3=O)C3(CCCC3)C2)[C@H](c2ccccc2)C1 [Example 45]"
  pIC50: "> 8.00"
- molecule: "CN[C@@H]1CCN(C(=O)N2CC[C@@H](Cn3ccc(-c4ccccc4OC)cc3=O)C3(CCCC3)C2)[C@H](c2ccccc2F)C1 [Example 118]"
  pIC50: "> 8.00"
- molecule: "O=C(N1CC[C@@H](Cn2cnc(C(F)F)cc2=O)C2(CCCC2)C1)N1CC[C@@H](NCC(F)F)C[C@H]1c1cc(F)ccc1F [Example 152]"
  pIC50: "7.00 to 8.00"
- molecule: "O=C(N1CC[C@@H](Cn2cnc3ccc(F)cc3c2=O)C2(CCCC2)C1)N1CC[C@@H](N2CCOCC2)C[C@H]1c1ccccc1 [Example 171, hydrochloride]"
  pIC50: "6.00 to 7.00"

Summary line: N[C@@H]1CCN(C(=O)N2CC[C@H](Cn3cnc(-c4ccccc4)cc3=O)C3(CCCC3)C2)[C@H](c2ccccc2)C1 [Example 26] , Full-length USP19 (Homo sapiens), reported pIC50 = 6.00 to 7.00

Item CC1(C)CN(C(=O)N2CC[C@@H](N)C[C@H]2c2ccccc2)CC[C@H]1Cn1ccc(-c2ccccc2)cc1=O [Example 69] was tested on Full-length USP19 (Homo sapiens); the reported pIC50 is > 8.00

Reported pIC50 (Full-length USP19 (Homo sapiens)) for entry O=C(N[C@@H]1CCN(C(=O)N2CC[C@@H](Cn3cnc4ccc(F)cc4c3=O)C3(CCCC3)C2)[C@H](c2cc(F)ccc2F)C1)C1CC1 [Example 173] is 7.00 to 8.00

Record N[C@@H]1CCN(C(=O)N2CCC(F)(Cn3cnc(-c4ccccc4)cc3=O)C3(CCCC3)C2)[C@H](c2ccccc2)C1 (some centres unmarked) [Example 57] / Full-length USP19 (Homo sapiens), pIC50 recorded as > 8.00

Form field, pIC50 with Full-length USP19 (Homo sapiens), item N[C@@H]1CCN(C(=O)N2CC[C@@H](Cn3cnc4ccc(F)cc4c3=O)C3(CCCC3)C2)[C@H](c2ccccc2)C1 [Example 100] : > 8.00
